Listed next: entries and their corresponding composite z-score.
- PROCEDURE_DETAILS: small-molecule microarray binders of probe aShh, primary screen, biochemical, biotinylated probe, 635/667 nm fluorescence (AID 1114);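 note: probe is biotin-labelled aShh protein from a stem cell growth factor screen; measures binding of labelled protein to compounds printed on the slide; score merges feature fluorescence at 667 nm with signal-to-noise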
- CONDITION_CONTEXT: higher = more signal
Could you respond with only the numeric value?

CC(=O)NCCCC[C@@H]1NC(=O)[C@@H]2C[C@H](C(=O)NCc3ccc(F)cc3)[C@H](c3cccc(OCCO)c3)N2C1=O = 0.0469
CC1=C([C@H](O)CCc2ccccc2)[C@H](CO)[C@@H]2C(=O)N(Cc3ccccc3)C(=O)[C@@H]2C1 = -0.289
CC(C)N1CC=CC23O[C@@H]4/C=C\CCCOC(=O)C4[C@H]2C(=O)N(CCO)[C@@H]3C1=O (some centres undefined) = -0.0769

Below: the item to evaluate.
Query string: Using the record for CC(C)C[C@@H]1NC(=O)[C@H]2C[C@@H](C(=O)NCCCCCC[N+](C)(C)C)[C@@H](c3ccc(O)cc3)N2C1=O , state its measured composite z-score.
Result string: 0.0856

====

- PROCEDURE_DETAILS: basal RPMI8226 viability, no added stimulus, profiling panel, cell-based, calcein-AM fluorescence, 48 h, PK04 Diversity Set (AID 1166);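 note: cells grown under basal conditions without added stimulus; test concentration not given here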
- CONDITION_CONTEXT: RPMI8226 myeloma viability, higher = more signal
Readings of z-score for the listed compounds
Number only, no unit.

Example compounds with recorded z-score:
CN1C2C=C(c3ccc(CO)cc3)C(C3C(=O)N(C(N)=O)C(=O)C32)C1c1cccs1 (stereo unspecified) = 1.07
O=C1O[C@@H](c2ccccc2)[C@@H](c2ccccc2)N2[C@@H](c3ccc(OCCO)cc3)[C@]3(C(=O)Nc4ccc(C#CCCO)cc43)[C@@H](C(=O)N3CCN(c4ncccn4)CC3)[C@H]12 = 0.442
COc1ccc([Si](C)(C)[C@H]2[C@H](CC(=O)N3Cc4ccccc4C[C@H]3CO)O[C@@]3(C(=O)N(Cc4cccc(N5CCOC5=O)c4)c4ccccc43)[C@@H]2C)cc1 = -0.727
COCCOC(=O)N1C(=O)[C@@]2(c3cc(C#CCCO)ccc31)[C@H](C(=O)N1CCCCCCC1)[C@H]1C(=O)O[C@H](c3ccccc3)[C@H](c3ccccc3)N1[C@@H]2c1ccc(O)cc1 = -0.479
COCCOC(=O)N1C(=O)[C@@]2(c3cc(C#CCNC(N)=O)ccc31)[C@H](C(=O)N1CCCCCCC1)[C@H]1C(=O)O[C@H](c3ccccc3)[C@H](c3ccccc3)N1[C@@H]2c1ccccc1OCCO = 0.767

Could you now look at the following compound, please?
Query string: Return z-score (reported value) for this compound: C=CCC(OC(C)=O)[C@@H]1[C@@H](N(Cc2ccc(-c3ccccc3)cc2)C(=O)c2ccc(-c3ccccc3)cc2)c2cc(OCCCO)ccc2N1C(=O)Cc1ccc(OC)cc1 (stereo partly specified)
Result string: -0.904

====

- PROCEDURE_DETAILS: PSAC antagonists in infected red cells, primary screen, cell-based, P. falciparum Indochina, OD700, 18 h (AID 1157)
- CONDITION_CONTEXT: P. falciparum Indochina infected erythrocytes, osmotic lysis OD700, 18 h; higher = more signal, called active from +8 up or from −8 down
Active and inactive are the calls of the source.
READOUT_TYPE: z-score

Guide cases for z-score, answers given:
C[N+](C)(C)CCCCNC(=O)[C@H]1C[C@H]2C(=O)NCC(=O)N2[C@H]1c1cccc(OCCO)c1 = -0.0179 (inactive)
C[N+](C)(C)CCCC[C@@H]1NC(=O)[C@H]2C[C@@H](C(=O)NCc3ccc(F)cc3)[C@@H](c3cccc(OCCO)c3)N2C1=O = -2.37 (inactive)
CCC#CCN(Cc1ccccc1Br)[C@H](/C=C/c1ccccc1)[C@@H](O)Cc1ccccc1 = 0.475 (inactive)
Cc1ccc(S[C@]2(C(=O)NC(C)C)CC(=O)N(Cc3cc(C(F)(F)F)cc(C(F)(F)F)c3)[C@@H]2c2ccc(CO)cc2I)cc1 = 0.132 (inactive)
CCOC(=O)C[C@H]1[C@H](OC(=O)Cc2ccc3c(c2)OCO3)[C@@H](NC(=O)c2ccc3ccccc3c2)c2cc(OCCCO)ccc2N1C(=O)Cc1ccc(OC)cc1 = -0.15 (inactive)
CO[C@H]1COC(=O)CC=C[C@H](C)COC(=O)[C@@H](OCc2ccccc2)C=C[C@@H]1C = -2.2 (inactive)

Could you now look at the following compound, please?
Query string: Give me measured z-score, please, for this compound: N#Cc1ccc(NN2C(C(O)CCc3ccccc3)C=CC3C(=O)N(c4ccccc4)C(=O)C32)cc1 (configuration not stated)
Result string: -0.864 (inactive)
